Origin of the recorded values: the supplement of paper PMC7877785

test_protocol: self-splicing fitness, log relative to wild type (ln ratio); higher = more splicing; Tetrahymena group I intron in knt gene, E. coli kanamycin selection, DiMSum; sequences stand for … in CUCUCU…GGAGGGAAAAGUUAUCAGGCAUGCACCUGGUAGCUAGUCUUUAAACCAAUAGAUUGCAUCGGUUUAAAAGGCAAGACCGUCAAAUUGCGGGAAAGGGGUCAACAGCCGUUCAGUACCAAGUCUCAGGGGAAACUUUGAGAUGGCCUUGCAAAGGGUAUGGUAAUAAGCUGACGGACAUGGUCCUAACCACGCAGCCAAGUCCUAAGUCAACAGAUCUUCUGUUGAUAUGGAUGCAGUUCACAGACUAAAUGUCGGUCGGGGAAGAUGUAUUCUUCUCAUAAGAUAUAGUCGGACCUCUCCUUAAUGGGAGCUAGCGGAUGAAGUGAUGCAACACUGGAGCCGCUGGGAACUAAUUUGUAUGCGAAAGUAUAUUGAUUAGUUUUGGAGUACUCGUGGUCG;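 further: selection with 25 µg/mL kanamycin versus none on LB agar overnight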
condition_info: 37 °C
Rule: self-splicing fitness (ln) of -2 or more gives Fulfilled; anything lower gives Not fulfilled.

biosequence | answer_label
GGCGAGCAAUAUUACGGGAA | Fulfilled
GGAAAGCAAUAUUACGGGAA | Not fulfilled
CCCUAGCAAUAUUACGACGA | Not fulfilled
UGCUAGCAAUAUUACGAGGG | Not fulfilled
CGUAAGCAAUAUUACGUAUG | Fulfilled
GAUCAGCAAUAUUACGGAGA | Fulfilled
CGGCAGCAAUAUUACGGGUU | Not fulfilled
CCCUAGCAAUAUUACGCGAU | Not fulfilled
UAUGAGCAAUAUUACGCGCA | Fulfilled
GGCCAGCAAUAUUACGUUGA | Fulfilled
UUCCAGCAAUAUUACGUGGG | Not fulfilled
UUUCAGCAAUAUUACGGAAA | Not fulfilled

* * *

test_protocol: self-splicing fitness, log relative to wild type (ln ratio); higher = more splicing; Tetrahymena group I intron in knt gene, E. coli kanamycin selection, DiMSum; sequences stand for … in CUCUCU…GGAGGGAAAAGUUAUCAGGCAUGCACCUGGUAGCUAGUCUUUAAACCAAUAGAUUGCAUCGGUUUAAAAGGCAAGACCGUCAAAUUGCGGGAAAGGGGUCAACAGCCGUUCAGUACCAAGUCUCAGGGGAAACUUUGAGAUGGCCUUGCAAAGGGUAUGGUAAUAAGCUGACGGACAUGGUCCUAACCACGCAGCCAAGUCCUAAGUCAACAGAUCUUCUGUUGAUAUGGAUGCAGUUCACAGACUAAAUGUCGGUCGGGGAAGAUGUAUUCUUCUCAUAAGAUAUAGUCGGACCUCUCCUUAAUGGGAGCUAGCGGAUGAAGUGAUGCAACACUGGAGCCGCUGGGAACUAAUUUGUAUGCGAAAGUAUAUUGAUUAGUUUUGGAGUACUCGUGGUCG
condition_info: 37 °C
parameter_measured: self-splicing fitness (ln)

biosequence | endpoint_value
GGAAAGCAAUAUUACGAAGU | -1.97
AAGCAGCAAUAUUACGAACG | -0.98
GAACAGCAAUAUUACGUAUA | -0.324
AUCUAGCAAUAUUACGUUUA | -2.3
CAAAAGCAAUAUUACGAGGG | -2.53
GGUGAGCAAUAUUACGUACG | -0.434
UUCAAGCAAUAUUACGUCAA | -0.645
CCGUAGCAAUAUUACGCGAG | -2.76
UGAAAGCAAUAUUACGAAUG | -0.0842
CAUUAGCAAUAUUACGCUGA | -1.96
UAAGAGCAAUAUUACGGUAA | -3.19
ACUUAGCAAUAUUACGAAGG | -1.33
CAGGAGCAAUAUUACGCCCA | -1.18
ACUUAGCAAUAUUACGAGCU | -0.0037
GUCAAGCAAUAUUACGAGAU | -3.28
GAUAAGCAAUAUUACGGUCC | -3.48

* * *

test_protocol: self-splicing fitness, log relative to wild type (ln ratio); higher = more splicing; Tetrahymena group I intron in knt gene, E. coli kanamycin selection, DiMSum; sequences stand for … in CUCUCU…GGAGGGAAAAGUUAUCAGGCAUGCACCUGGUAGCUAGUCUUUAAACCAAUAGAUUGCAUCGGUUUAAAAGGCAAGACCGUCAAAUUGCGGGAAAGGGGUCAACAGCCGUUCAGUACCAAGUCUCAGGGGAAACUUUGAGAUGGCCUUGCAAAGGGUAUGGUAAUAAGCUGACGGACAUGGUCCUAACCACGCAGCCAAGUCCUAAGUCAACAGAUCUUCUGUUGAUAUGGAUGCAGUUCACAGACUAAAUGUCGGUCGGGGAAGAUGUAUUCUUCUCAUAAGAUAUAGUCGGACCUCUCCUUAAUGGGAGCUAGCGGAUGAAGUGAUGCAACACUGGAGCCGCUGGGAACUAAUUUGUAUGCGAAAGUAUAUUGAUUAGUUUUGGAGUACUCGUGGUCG
condition_info: 30 °C

biosequence | self-splicing fitness (ln)
CCUCAGCAAUAUUACGAACU | -2.63
CGCGAGCAAUAUUACGGCCG | -3.16
CUUCAGCAAUAUUACGCAUA | -4.27
CGAUAGCAAUAUUACGCACU | -1.12
UGCGAGCAAUAUUACGCCCU | -0.783
GCACAGCAAUAUUACGGUCA | -0.62
GAGAAGCAAUAUUACGCUGU | -3.35
GAGGAGCAAUAUUACGGGUG | -3.55
GCUAAGCAAUAUUACGUAAG | -0.616
GAGGAGCAAUAUUACGGUUU | -2.44
UGGGAGCAAUAUUACGGACA | -1.7
AAGAAGCAAUAUUACGGAUU | -1.37
CAAGAGCAAUAUUACGUUAU | -4.08
GUAGAGCAAUAUUACGUCGA | -3.08
AGGAAGCAAUAUUACGCUGU | -2.29
CUCCAGCAAUAUUACGGAGA | -3.61
UCAGAGCAAUAUUACGUGCU | -3.09

* * *

test_protocol: self-splicing fitness, log relative to wild type (ln ratio); higher = more splicing; Tetrahymena group I intron in knt gene, E. coli kanamycin selection, DiMSum; sequences stand for … in CUCUCU…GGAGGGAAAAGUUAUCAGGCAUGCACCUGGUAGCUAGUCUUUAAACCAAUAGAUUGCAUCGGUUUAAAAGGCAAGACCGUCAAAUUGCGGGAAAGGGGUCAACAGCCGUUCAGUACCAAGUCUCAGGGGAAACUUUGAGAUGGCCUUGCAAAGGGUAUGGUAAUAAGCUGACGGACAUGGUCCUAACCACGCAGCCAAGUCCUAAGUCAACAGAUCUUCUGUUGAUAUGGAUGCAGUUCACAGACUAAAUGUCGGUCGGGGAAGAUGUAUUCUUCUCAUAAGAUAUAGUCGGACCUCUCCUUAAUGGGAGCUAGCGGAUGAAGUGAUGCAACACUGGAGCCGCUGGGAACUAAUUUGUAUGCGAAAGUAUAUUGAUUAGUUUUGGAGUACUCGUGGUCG
condition_info: 37 °C

biosequence | self-splicing fitness (ln)
AUAUAGCAAUAUUACGUUUC | -1.45
UCCGAGCAAUAUUACGCUUG | -2.09
UCAGAGCAAUAUUACGGAUU | -2.68
GAAAAGCAAUAUUACGUAAU | -1.47
GGGCAGCAAUAUUACGCUCA | -0.272
CCAUAGCAAUAUUACGCUCG | -0.407
AAAUAGCAAUAUUACGUUGA | -0.771
UUAAAGCAAUAUUACGAUGU | -0.671
CAGUAGCAAUAUUACGGAGC | -1.75
UCGAAGCAAUAUUACGCCAA | -2.2
UAUAAGCAAUAUUACGCAUA | -0.585
UUGCAGCAAUAUUACGUGGA | -1.27
CGCAAGCAAUAUUACGAAGU | -0.741
UUAAAGCAAUAUUACGCCUU | -1.28

* * *

The entries below are paired with their reported self-splicing fitness (ln).
test_protocol: self-splicing fitness, log relative to wild type (ln ratio); higher = more splicing; Tetrahymena group I intron in knt gene, E. coli kanamycin selection, DiMSum; sequences stand for … in CUCUCU…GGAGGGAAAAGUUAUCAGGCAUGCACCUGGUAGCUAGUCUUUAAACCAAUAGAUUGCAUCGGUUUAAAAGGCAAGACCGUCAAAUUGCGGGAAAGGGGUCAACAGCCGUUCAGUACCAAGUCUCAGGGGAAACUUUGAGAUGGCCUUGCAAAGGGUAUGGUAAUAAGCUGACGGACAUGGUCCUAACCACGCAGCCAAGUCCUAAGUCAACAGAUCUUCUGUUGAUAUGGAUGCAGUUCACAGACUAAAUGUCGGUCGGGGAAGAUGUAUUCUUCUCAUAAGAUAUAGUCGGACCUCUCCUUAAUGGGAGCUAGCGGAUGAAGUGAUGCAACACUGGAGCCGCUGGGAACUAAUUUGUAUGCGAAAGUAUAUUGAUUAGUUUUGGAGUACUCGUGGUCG
condition_info: 30 °C

biosequence | self-splicing fitness (ln)
GCUCAGCAAUAUUACGCGGU | -3.01
GGGCAGCAAUAUUACGUUGC | -3.77
UUAUAGCAAUAUUACGCUCC | -2.11
UCCGAGCAAUAUUACGCACU | -2.93
AAUCAGCAAUAUUACGGCUG | -2.34
AUCUAGCAAUAUUACGUCCC | -0.434
CCCGAGCAAUAUUACGAGGC | -2.89
UUCAAGCAAUAUUACGGAGC | -2.66
UUACAGCAAUAUUACGAGCC | -2.86
CAGUAGCAAUAUUACGCUAC | -4.2
AGUGAGCAAUAUUACGCGAU | -3.96
GCCGAGCAAUAUUACGUACG | -2.46
GGUAAGCAAUAUUACGGAAC | -1.55
